# Test system: Streptococcus pneumoniae SV-1
# run_description: In vitro antibacterial activity, microtitration dilution method (MIC)
# Format: cell-based
# applied_conditions: SV1; Streptococcus pneumoniae SV-1, microtitration dilution; read-out: Minimal Inhibitory Concentration MIC
Listing of recorded MIC by entry.
Enter your answer as a number in µg/mL; do not include the unit.

Please report the measured MIC for Cc1c(F)c(N2CCC(N)C2)c(Cl)c2c1c(=O)c(C(=O)O)cn2C1CC1 (stereo not drawn) tested on Streptococcus pneumoniae SV-1.
0.025

====

# Tested on: Streptococcus pyogenes C-203
Listing of recorded log10 of MIC by entry.
Heads up: the numbers are on a log10 scale; they represent MIC in µg/mL.

Solved entries (count: 5):
Please report the measured log10 of MIC for `CCn1cc(C(=O)O)c(=O)c2c(C)c(F)c(N3CCNCC3)c(F)c21` tested on Streptococcus pyogenes C-203.
1.10

Please report the measured log10 of MIC for Cc1c(F)c(N2CC(C)NC(C)C2)cc2c1c(=O)c(C(=O)O)cn2-c1ccc(F)cc1F (centres unmarked) [Ex. 17b] tested on Streptococcus pyogenes C-203.
-1.00

Please report the measured log10 of MIC for Cc1c(F)c(N2CCNC(C)C2)cc2c1c(=O)c(C(=O)O)cn2-c1ccc(F)cc1F (centres unmarked) [Ex. 17a] tested on Streptococcus pyogenes C-203.
-1.00

Please report the measured log10 of MIC for Cc1c(F)c(N2CCC(N)C2)c(F)c2c1c(=O)c(C(=O)O)cn2-c1ccc(F)cc1F (centres unmarked) tested on Streptococcus pyogenes C-203.
-1.00

Please report the measured log10 of MIC for `Cc1c(F)c(N2CCNCC2)cc2c1c(=O)c(C(=O)O)cn2-c1ccc(F)cc1F` tested on Streptococcus pyogenes C-203.
-1.00

More entries:
Please report the measured log10 of MIC for CCn1cc(C(=O)O)c(=O)c2c(C)c(F)c(N3CCC(N)C3)c(F)c21 (centres unmarked) tested on Streptococcus pyogenes C-203.
0.49

Please report the measured log10 of MIC for `Cc1c(F)c(N2CCNCC2)c(F)c2c1c(=O)c(C(=O)O)cn2C1CC1` tested on Streptococcus pyogenes C-203.
-1.30

Please report the measured log10 of MIC for `Cc1c(F)c(N2CCNCC2)nc2c1c(=O)c(C(=O)O)cn2C1CC1` tested on Streptococcus pyogenes C-203.
-0.40

Please report the measured log10 of MIC for Cc1c(F)c(N2CCNC(C)C2)c(F)c2c1c(=O)c(C(=O)O)cn2C1CC1 (centres unmarked) tested on Streptococcus pyogenes C-203.
-2.22

Please report the measured log10 of MIC for `Cc1c(F)c(N2CCNCC2)cc2c1c(=O)c(C(=O)O)cn2C1CC1` tested on Streptococcus pyogenes C-203.
-1.00

Please report the measured log10 of MIC for Cc1c(F)c(N2CCC(N)C2)c(Cl)c2c1c(=O)c(C(=O)O)cn2C1CC1 (centres unmarked) tested on Streptococcus pyogenes C-203.
-1.30

====

# System: Pseudomonas aeruginosa UI-18
# run_description: In vitro antibacterial activity, microtitration dilution method (MIC)
# Assay type: cell-based
# applied_conditions: UI18; Pseudomonas aeruginosa UI-18, microtitration dilution; read-out: Minimal Inhibitory Concentration MIC
Listing of recorded MIC by entry.
Enter your answer as a number in µg/mL; do not include the unit.

Tell us which MIC value is on record for Cc1c(F)c(N2CC(C)NC(C)C2)c(F)c2c1c(=O)c(C(=O)O)cn2-c1ccc(F)cc1F (stereo not shown) [Ex. 14a]
3.1

Tell us which MIC value is on record for Cc1c(F)c(N2CCC(C)(CN)C2)cc2c1c(=O)c(C(=O)O)cn2-c1ccc(F)cc1F (stereo not shown) [Ex. 17e]
3.1

Tell us which MIC value is on record for CCn1cc(C(=O)O)c(=O)c2c(C)c(F)c(N3CCC(N)C3)c(F)c21 (stereo not shown) [Ex. 13]
1.6

Now for a further compound.
Tell us which MIC value is on record for Cc1c(F)c(N2CC(C)NC(C)C2)cc2c1c(=O)c(C(=O)O)cn2-c1ccc(F)cc1F (stereo not shown) [Ex. 17b]
1.6
